Test: 1-Octanol-phosphate buffered saline distribution coefficient, log D of the compound at pH 7.4
Type: physicochemical
logD listing for selected molecules.
Just the number.

Input: Data request, read-out logD, for O=C(CN1CCN(c2ccc(F)cc2)CC1)Nc1nc2c(s1)CCCC2
Output: 4.5

More entries:
Input: What logD value was documented for this molecule, O=C(CN1CCN(c2cccnc2)CC1)Nc1nc2c(s1)CCCC2 ?
Output: 3.3

Input: Sample O=C(CN1CCN(c2ccccc2)CC1)Nc1nc2c(s1)CCCC2 — what was its logD?
Output: 4.3

Input: # logD lookup, item Cc1ccc(N2CCN(CC(=O)Nc3nc4c(s3)CCCC4)CC2)cc1
Output: 4.8

Input: // logD lookup, key: O=C(CN1CCN(c2ccc(F)cn2)CC1)c1cnn2ccccc12
Output: 2.5

Input: # logD lookup, item O=C(CN1CCN(c2ccc(F)cc2)CC1)Nc1nc2ccccc2s1
Output: 4.4

Input: Consider the molecule O=C(CN1CCN(C2CCCCC2)CC1)Nc1nc2c(s1)CCCC2 and give its measured logD.
Output: 3

Input: Request the reported logD associated with O=C(CN1CCN(c2ccncc2)CC1)Nc1nc2c(s1)CCCC2
Output: 2

###

Catalogue of compounds with associated logD
Experiment: 1-Octanol-phosphate buffered saline distribution coefficient, log D of the compound at pH 7.4
Format: physicochemical
# respond with the number and nothing more

Input: Would you kindly share the measured logD for O=C(CN1CCN(c2ccc(F)cn2)CC1)c1cnc2ccccn12 ?
Output: 2.5

Input: Look up logD: O=C(CN1CCN(c2ccc(F)cc2)CC1)Nc1nc2c(s1)CCCCC2
Output: 5

Input: Look at this compound and give its reported logD. O=C(CN1CCN(c2ccc(F)cn2)CC1)c1cnc2n1CCCC2
Output: 2.1

Input: Entry under review: Cc1nc2ccccn2c1C(=O)CN1CCN(c2ccc(F)cn2)CC1 . Reported logD?
Output: 2.8

Input: // returns reported logD for input O=C(CN1CCN(c2nccs2)CC1)Nc1nc2c(s1)CCCC2
Output: 3.8

New cases:
Input: # logD lookup, item Cc1nc(NC(=O)CN2CCN(c3ccc(F)cc3)CC2)sc1C
Output: 3.7

Input: Dear colleague, I am looking for the recorded logD of the following compound: O=C(CN1CCN(C(=O)c2ccccc2)CC1)Nc1nc2c(s1)CCCC2
Output: 2.1

Input: Quick one: logD for O=C(CN1CCN(c2ccc(F)cn2)CC1)c1n[nH]c2ccccc12 ?
Output: 2.8

Input: Field request: logD | item: O=C(CN1CCN(c2ccc(F)cc2)CC1)Nc1nccs1
Output: 2.8

Input: What logD value was documented for this compound, O=C(CN1CCN(c2ccccn2)CC1)Nc1nc2c(s1)CCCC2 ?
Output: 3.9

###

The following are reported IC50 results, target or system Long-chain fatty acid transport protein 1 (Mus musculus).

Previously resolved entries follow.
Input: I have this molecule here, Cc1ccc(N2CCN(CC(=O)Nc3nc4c(s3)CCCC4)CC2)cc1 , and I need its recorded IC50.
Output: > 10 µM

Input: Name the recorded IC50 for O=C(CN1CCN(c2ccc(F)cc2)CC1)Nc1nc2ccccc2s1 .
Output: > 10 µM

Input: I'd like to know its IC50. The molecule in question is O=C(CN1CCN(c2ccc(F)cc2)CC1)Nc1nc2c(s1)CCC2
Output: > 10 µM

Input: State the recorded IC50 for this entry: O=C(CN1CCN(c2ccncc2)CC1)Nc1nc2c(s1)CCCC2
Output: > 10 µM

Others:
Input: Value lookup for IC50; key = CCN(C(=O)CN1CCN(c2ccc(F)cn2)CC1)c1nc2c(s1)CCCC2
Output: > 10 µM

Input: Consider the molecule shown here: O=C(CN1CCN(C(=O)c2ccccc2)CC1)Nc1nc2c(s1)CCCC2 What is its recorded IC50?
Output: > 10 µM

Input: So what's the measured IC50 for this one? Cc1nc2ccccn2c1C(=O)CN1CCN(c2ccc(F)cn2)CC1
Output: 0.39 µM

Input: Request the reported IC50 associated with O=C(CN1CCN(c2ccc(F)cn2)CC1)c1c[nH]c2ccccc12
Output: > 10 µM

Input: Requested read-out: IC50. Entry: O=C(CN1CCN(c2ccc(F)cn2)CC1)c1cnc2n1CCCC2
Output: 0.16 µM

Input: Quick check: IC50 of Cc1nc2n(c1C(=O)CN1CCN(c3ccc(F)cn3)CC1)CCCC2 ?
Output: 0.4 µM

Input: Query: IC50; subject: O=C(CN1CCN(c2ccc(F)cc2)CC1)Nc1nccs1
Output: > 10 µM

Input: Which IC50 value belongs to O=C(CN1CCN(c2ccc(F)cn2)CC1)c1coc2ccccc12 ?
Output: 1.9 µM
